- Assay: yeast display, Sf9 membrane polyspecificity reagent, FACS + sequencing; frameworks hold sequencing errors

{"Chain Sequence": "QVQLVESGGGLVQAGGSLSLSCAASGRIFSYNDMGWYRQAPGKERELVAAITSNDGSTYYADSVKGRFTISRDNAKNTVYLQMNSLKPVDSAVSYCTADVLFLSSYGYDYWGQGTQVTVSS", "polyreactivity (PSR sort gate)": "low polyreactivity"}
{"Chain Sequence": "QVQLVESGGGLDQAGGSLRLSCAASGSIFVTNVMGGYRQAPGKERELVAAISSSGTRTYADSVKGRFTISRDNAKNTVYLQMNSLKTEDTAVYYCAKDYRVWVAATIAHDYWGQGTQVTVSS", "polyreactivity (PSR sort gate)": "low polyreactivity"}
{"Chain Sequence": "QVQLVESGGGLVQAGGSLRLSCAASGSTFWYYAMAWYRHAPGKEREMVAAINSDDSTNYADSVKGRFTISRDNAKNTDYLQMNSLKPEDTAVYDCHRGFVYSTTGLWRYYDFDYWGQGTQVTLSS", "polyreactivity (PSR sort gate)": "low polyreactivity"}
{"Chain Sequence": "QVQLVESGGGLVQAGGSLSLSCAASGFIFLGNAMGWYRQAPGKEREVVAAISSGGSTYADSVKGRFTISRDHAKNTVYLQMNSLKPEDTAVYYCAVDRAFRAQNYHEYDYWGQGSQVTVSS", "polyreactivity (PSR sort gate)": "low polyreactivity"}

Data credit: the nanobody polyreactivity screen of Harvey et al. (2022)
